Test: One-electron reduction potential E(1) by pulse radiolysis
Format: physicochemical
Conditions: determined by pulse radiolysis
READOUT KIND: E(1): one-electron reduction potential

>>> result("CN(C)CCOc1ccc2[nH]c(C(=O)N3CC(CCl)c4c3cc([N+](=O)[O-])c3cc(S(=O)(=O)NCCO)ccc43)cc2c1 (stereo not shown) [Compound 35]")
"−392 ± 7 mV"
>>> result("CN(C)CCOc1ccc2[nH]c(C(=O)N3CC(CCl)c4c3cc([N+](=O)[O-])c3cc(S(N)(=O)=O)ccc43)cc2c1 (stereo not shown) [Compound 26]")
"−390 ± 9 mV"
>>> result("CN(C)CCOc1ccc2[nH]c(C(=O)N3CC(CCl)c4c3cc([N+](=O)[O-])c3ccc(S(N)(=O)=O)cc43)cc2c1 (stereo not shown) [Compound 49]")
"−456 ± 8 mV"
>>> result("CN(C)CCOc1ccc2[nH]c(C(=O)N3CC(CCl)c4c3cc([N+](=O)[O-])c3ccc(S(C)(=O)=O)cc43)cc2c1 (stereo not shown) [Compound 47]")
"−420 ± 8 mV"
>>> result("CN(C)CCNS(=O)(=O)c1ccc2c3c(cc([N+](=O)[O-])c2c1)N(C(=O)c1cc2cc(OCCN(C)C)ccc2[nH]1)CC3CCl (stereo not shown) [Compound 39]")
"−357 ± 8 mV"
>>> result("CN(C)CCOc1ccc2[nH]c(C(=O)N3CC(CCl)c4c3cc([N+](=O)[O-])c3c(C#N)cccc43)cc2c1 (stereo not shown) [Compound 6]")
"−491 ± 8 mV"
>>> result("CN(C)CCOc1ccc2[nH]c(C(=O)N3CC(CCl)c4c3cc([N+](=O)[O-])c3cc(C(N)=O)ccc43)cc2c1 (stereo not shown) [Compound 16]")
"−422 ± 10 mV"

These data points were gathered from patent US7718688B2.
